# System name: serotonin reuptake sites (Rattus norvegicus, UniProt P31652)
# Construct: The membranes from the rat frontal cortex are prepared and incubated in triplicate
# Sequence (P31652 whole entry): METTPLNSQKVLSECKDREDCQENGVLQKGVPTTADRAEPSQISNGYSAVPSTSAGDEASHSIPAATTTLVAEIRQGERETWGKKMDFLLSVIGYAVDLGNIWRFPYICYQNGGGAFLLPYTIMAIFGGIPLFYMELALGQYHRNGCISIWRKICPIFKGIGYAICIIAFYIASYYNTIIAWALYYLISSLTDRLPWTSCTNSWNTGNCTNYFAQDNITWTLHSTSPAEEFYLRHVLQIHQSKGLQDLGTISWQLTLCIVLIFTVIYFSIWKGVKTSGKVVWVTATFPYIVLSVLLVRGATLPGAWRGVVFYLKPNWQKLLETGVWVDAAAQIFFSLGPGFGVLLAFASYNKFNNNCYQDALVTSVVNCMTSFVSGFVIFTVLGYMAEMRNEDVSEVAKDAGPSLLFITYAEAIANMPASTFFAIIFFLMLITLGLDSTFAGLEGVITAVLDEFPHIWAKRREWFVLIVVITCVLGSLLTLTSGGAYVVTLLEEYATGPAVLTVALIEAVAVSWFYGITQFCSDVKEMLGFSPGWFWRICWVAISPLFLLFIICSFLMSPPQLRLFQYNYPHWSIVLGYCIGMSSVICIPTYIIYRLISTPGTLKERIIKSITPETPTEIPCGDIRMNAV
# Test summary: Affinity for serotonin reuptake sites, competition with [3H]-paroxetine on rat frontal cortex membranes
# Reported conditions: 0.25 nM [3H]-paroxetine, 2 hours, 25° C.
Property label: IC50
Provide a numeric answer, followed by its unit.

c1cc(C(C2=NCCN2)C2CCCCC2)cs1 (centres unmarked) [Example 3]
2000 nM

We next turn to a different compound, shown below.
Data request: Report IC50 for c1ccc(C(C2=NCCN2)C2CCCCC2)cc1 (centres unmarked) [reference compound] please.
Data returned: 150 nM
